B1: DVL3 (parent)
chain: FPELGYSYGGGSASSQHSEGSRSS

# Variants of: B1
# assay.name: protein stability index of a GFP-peptide fusion (GPS, HEK-293T) (PSI 1-6); higher = more stable;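 also: lentivirally expressed fusions sorted by FACS into six bins by GFP to DsRed ratio, PSI derived from sequencing read proportions per bin multiplied by bin number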
# test.parameters: c terminus: a fixed tail appended

[
  {
    "chain.sequence": "FPELGASYGGGSASSQHSEGSRSS [Y6A]",
    "protein stability index": 3.87
  },
  {
    "chain.sequence": "FPELGYSYGGGSASSQLSEGSRSS [H17L]",
    "protein stability index": 2.77
  },
  {
    "chain.sequence": "FPEIGYSYGGGSASSQHSEGSRSS [L4I]",
    "protein stability index": 3.25
  },
  {
    "chain.sequence": "FPELGYSYGGASASSQHSEGSRSS [G11A]",
    "protein stability index": 3.29
  },
  {
    "chain.sequence": "FPELGYSYGGGSISSQHSEGSRSS [A13I]",
    "protein stability index": 2.45
  },
  {
    "chain.sequence": "FPELGYMYGGGSASSQHSEGSRSS [S7M]",
    "protein stability index": 2.65
  },
  {
    "chain.sequence": "PPELGYSYGGGSASSQHSEGSRSS [F1P]",
    "protein stability index": 5.34
  },
  {
    "chain.sequence": "FPPLGYSYGGGSASSQHSEGSRSS [E3P]",
    "protein stability index": 2.96
  },
  {
    "chain.sequence": "FPELGYSYGGGSASRQHSEGSRSS [S15R]",
    "protein stability index": 2.92
  },
  {
    "chain.sequence": "FPEGGYSYGGGSASSQHSEGSRSS [L4G]",
    "protein stability index": 1.8
  },
  {
    "chain.sequence": "FPELGYSYGGGSASSQHSEGQRSS [S21Q]",
    "protein stability index": 3.41
  },
  {
    "chain.sequence": "FPQLGYSYGGGSASSQHSEGSRSS [E3Q]",
    "protein stability index": 3.16
  },
  {
    "chain.sequence": "MPELGYSYGGGSASSQHSEGSRSS [F1M]",
    "protein stability index": 4.38
  },
  {
    "chain.sequence": "FPELGYSIGGGSASSQHSEGSRSS [Y8I]",
    "protein stability index": 2.58
  },
  {
    "chain.sequence": "FPELGYSYGGGSASSQHREGSRSS [S18R]",
    "protein stability index": 2.97
  },
  {
    "chain.sequence": "FPELGYSRGGGSASSQHSEGSRSS [Y8R]",
    "protein stability index": 3.2
  },
  {
    "chain.sequence": "FPELGYSYGGGSASSQHSESSRSS [G20S]",
    "protein stability index": 3.18
  },
  {
    "chain.sequence": "FPEPGYSYGGGSASSQHSEGSRSS [L4P]",
    "protein stability index": 3.24
  },
  {
    "chain.sequence": "FPELGYSNGGGSASSQHSEGSRSS [Y8N]",
    "protein stability index": 4.09
  },
  {
    "chain.sequence": "FFELGYSYGGGSASSQHSEGSRSS [P2F]",
    "protein stability index": 3.37
  },
  {
    "chain.sequence": "FPELGYSYGGGSAASQHSEGSRSS [S14A]",
    "protein stability index": 3.45
  }
]
